Hey, just so you know, these numbers are from ChEMBL document CHEMBL3885861.

Species on record: Rattus norvegicus
Assay: Open TG-GATES - Regimen: Daily Repeat
Assay type: toxicity, organism-based, Sprague-Dawley
Design: regimen Daily Repeat, gender Male, age 6 weeks
Conditions: in vivo, po, 300 mg/kg, […], tissue Plasma, route gavage, dose level Middle, time 14 day
measurement.type: TBIL (mg/dL)
// note: answer is a bare numeric in mg/dL

Here's what some known entries look like.
# compound, TBIL / mg/dL
measured = [
    ("COC1=CC(=O)C[C@@H](C)[C@]12Oc1c(Cl)c(OC)cc(OC)c1C2=O", 0.1),
    ("COc1ccc2[nH]c([S+]([O-])Cc3ncc(C)c(OC)c3C)nc2c1 (stereo not given)", 0.1),
    ("CCOc1ccc(NC(=O)CC(C)O)cc1 (stereo not given)", 0.048),
    ("CCOC(=O)CCC(=O)O[C@H]1[C@H](O[C@@H]2[C@@H](C)[C@H](O[C@H]3C[C@@](C)(OC)[C@@H](O)[C@H](C)O3)[C@@H](C)C(=O)O[C@H](CC)[C@@](C)(O)[C@H](O)[C@@H](C)C(=O)[C@H](C)C[C@@]2(C)O)O[C@H](C)C[C@@H]1N(C)C [ERYTHROMYCIN ETHYLSUCCINATE]", 0.01),
]

Here is another compound to look at.
Inquiry: Specify TBIL for `NC(N)=Nc1nc(CSCCC(N)=NS(N)(=O)=O)cs1` and stop.
Reply text: 0.2

###

Consider the following compounds and their measured ALT readings.
Species: Rattus norvegicus
Assay: Open TG-GATES - Regimen: Single
Assay type: toxicity, organism-based, Sprague-Dawley
Parameters: regimen Single, gender Male, age 6 weeks
Settings: in vivo, po, 10 mg/kg, 3 h, tissue Plasma, route gavage, dose level Low
// note: answer is a bare numeric in IU/L

# compound, number
records = [
    ("CN(C)CCCN1c2ccccc2CCc2ccccc21 [IMIPRAMINE]", 46.6),
]

Inquiry: Specify ALT for `CN(C)CCN(Cc1cccs1)c1ccccn1` and stop.
Reply text: 41.2

Inquiry: Specify ALT for CC(C)OC(=O)C(C)(C)Oc1ccc(C(=O)c2ccc(Cl)cc2)cc1 [FENOFIBRATE] and stop.
Reply text: 49.4

Inquiry: Specify ALT for CC1=C(/C=C/C(C)=C/C=C/C(C)=C/CO)C(C)(C)CCC1 [RETINOL] and stop.
Reply text: 41.2

Inquiry: Specify ALT for CN(C)CCCN1c2ccccc2CCc2ccc(Cl)cc21 [CLOMIPRAMINE] and stop.
Reply text: 41.2

###

Consider the following molecules and their measured GLC readings.
Species: Rattus norvegicus
Assay: Open TG-GATES - Regimen: Single
Assay type: toxicity, organism-based, Sprague-Dawley
Design: regimen Single, gender Male, age 6 weeks
Conditions: in vivo, po, 0 mg/kg, 9 h, tissue Plasma, route gavage, dose level Control
// note: answer is a bare numeric in mg/dL

Here's what some known entries look like.
# molecule, GLC [mg/dL]
measured = [
    ("COc1cc2c(c(OC)c1OC)-c1ccc(OC)c(=O)cc1[C@@H](NC(C)=O)CC2", 199.8),
    ("CN(C)CCCN1c2ccccc2CCc2ccc(Cl)cc21", 181),
    ("COC1=CC(=O)C[C@@H](C)[C@]12Oc1c(Cl)c(OC)cc(OC)c1C2=O", 206),
]

Inquiry: Specify GLC for CCOC(=O)CCC(=O)O[C@H]1[C@H](O[C@@H]2[C@@H](C)[C@H](O[C@H]3C[C@@](C)(OC)[C@@H](O)[C@H](C)O3)[C@@H](C)C(=O)O[C@H](CC)[C@@](C)(O)[C@H](O)[C@@H](C)C(=O)[C@H](C)C[C@@]2(C)O)O[C@H](C)C[C@@H]1N(C)C [ERYTHROMYCIN ETHYLSUCCINATE] and stop.
Reply text: 190.8
